Measured melting point values are reported for all entries that follow.

# count of solved cases: 5
molecule	melting point
CCCCCS(=O)(=O)NC(=O)CCCc1cc(OCCCC)nn1Cc1ccc(Cl)cc1Cl	121 to 122 °C
CC(C)Oc1cc(CCC(=O)NS(=O)(=O)c2ccccc2)n(Cc2ccc(Cl)cc2Cl)n1	184 to 185 °C
CCCCCS(=O)(=O)NCC(C)Cc1ccc(OCCOC)cc1Oc1ncc(C(F)(F)F)cc1Cl (stereo not shown)	80 to 82 °C
COCCOc1ccc(/C=C(\C)C(=O)NS(=O)(=O)CC(F)(F)F)c(Oc2ncc(C(F)(F)F)cc2Cl)c1	159 to 159.5 °C
CCCCCS(=O)(=O)NC(=O)/C=C/c1ccc(OCCOC)cc1Oc1ncc(NC(=O)OC(C)(C)C)cc1C	149.5 to 150.2 °C

Task: // lookup melting point for CCCS(=O)(=O)NC(=O)CCc1cc(OC(C)C)nn1Cc1ccc(Cl)cc1Cl
Result: 124 to 126 °C

Task: // lookup melting point for COCCOc1ccc(/C=C/C(=O)NS(=O)(=O)c2cccnc2)c(Oc2ncc(C(F)(F)F)cc2Cl)c1
Result: 165 to 167 °C

Task: // lookup melting point for CC(C)Oc1cc(CCCNC(=O)NS(=O)(=O)c2ccccc2)n(Cc2ccc(Cl)cc2Cl)n1
Result: 149 °C

Task: // lookup melting point for COCCOc1ccc(CCCOC(=O)NS(=O)(=O)NCCOC(C)C)c(Oc2ncc(Cl)cc2Cl)c1
Result: 87.5 to 88.4 °C

Task: // lookup melting point for COCCOc1ccc(COC(=O)NS(=O)(=O)NCC2CC2)c(Oc2ncc(C(F)(F)F)cc2Cl)c1
Result: 150 to 150.5 °C

Task: // lookup melting point for CCCCOc1cc(CCS(=O)(=O)NC(=O)OCc2ccccc2)n(Cc2ccc(Cl)cc2Cl)n1 [Example 138]
Result: 92 to 95 °C

Task: // lookup melting point for CCOC(=O)COc1ccc(CCCOC(=O)NCC2CC2)c(Oc2ncc(C(F)(F)F)cc2Cl)c1
Result: 112.8 to 113 °C

Task: // lookup melting point for CCCCCS(=O)(=O)NC(=O)/C=C/c1ccc(OCCC2OCCO2)cc1Oc1ncc(C(F)(F)F)cc1Cl
Result: 116 to 118 °C

---

Measured melting point values are reported for all entries that follow.

compound	result
COCCOc1ccc(CCCOC(=O)NS(=O)(=O)NCCC(C)C)c(Oc2ncc(C(F)(F)F)cc2Cl)c1	123 to 123.5 °C

Task: // lookup melting point for CCCCCS(=O)(=O)NC(=O)/C=C/c1ccc(OCCO[Si](c2ccccc2)(c2ccccc2)C(C)(C)C)cc1Oc1ncc(C(F)(F)F)cc1Cl (hydrate or solvate)
Result: 108 to 108.5 °C

Task: // lookup melting point for COCCCS(=O)(=O)NC(=O)/C=C/c1ccc(OC(C)C)cc1Oc1ncc(C(F)(F)F)cc1Cl
Result: 129.5 to 130 °C

Task: // lookup melting point for CCCCCS(=O)(=O)NC(=O)CCCCc1cc(OCCCC)nn1Cc1ccc(Cl)cc1Cl
Result: 91 to 93 °C

Task: // lookup melting point for COCOc1cc(/C=C/S(=O)(=O)NC(=O)OC(C)(C)C)n(Cc2ccc(Cl)cc2Cl)n1
Result: 139 to 140 °C

Task: // lookup melting point for COCCOc1ccc(CCC(=O)N(CCOC)S(N)(=O)=O)c(Oc2ncc(C(F)(F)F)cc2Cl)c1
Result: 101 to 101.1 °C

Task: // lookup melting point for C/C(=C\c1ccc(OC(C)C)cc1Oc1ncc(C(F)(F)F)cc1Cl)C(=O)NS(=O)(=O)NCCc1cccs1
Result: 130 to 131 °C
